test system: U2OS; test: Multiplex assay against U2OS; assay type: toxicity, cell-based; conditions: human, 12 h, 1 µM, compound concentration 1 uM, replicate 1
Parameter threshold = 80%. Response is Yes when Population Healthy Nuclei (%) meets or exceeds it, else No.

# compound, target or system, category
rows = [
    ("C=CC(=O)Nc1ccc2[nH]c(=O)n(C3CCN(Cc4ccc(-c5nc6cc[nH]c(=O)c6cc5-c5ccccc5)cc4)CC3)c2c1", "U2OS", "Yes"),
    ("CCc1ccc(OCc2ccccc2C(=O)Nc2ccc3nc(C)cc(N)c3c2)cc1.Cl", "U2OS", "No"),
    ("CN1CCN(Cc2ccc(Nc3ncc(Cl)c(Nc4ccccc4S(=O)(=O)N(C)C)n3)cc2)CC1", "U2OS", "No"),
    ("COc1ccc(-c2ccc3ncc4c(c3c2)n(-c2ccc(N3CCNCC3)c(C(F)(F)F)c2)c(=O)n4C)cn1.O=C(O)/C=C\\C(=O)O", "U2OS", "No"),
    ("Cc1ccc(C)c(Oc2ccncc2C(=O)N2CCN(C3CC3)c3ccccc32)c1", "U2OS", "No"),
    ("CCCSc1nc(N[C@@H]2C[C@H]2c2ccc(F)c(F)c2)c2nnn([C@@H]3C[C@H](OCCO)[C@@H](O)[C@H]3O)c2n1", "U2OS", "No"),
    ("C=CC(=O)Nc1cccc(Sc2nc(Nc3ccc(N4CCN(C)CC4)cc3)ncc2Cl)c1", "U2OS", "No"),
    ("CCc1nn(CCCN2CCN(c3cccc(Cl)c3)CC2)c(=O)n1CCOc1ccccc1.Cl [NEFAZODONE HYDROCHLORIDE]", "U2OS", "No"),
    ("O=c1[nH]c2ccccc2n1C1CCN(Cc2ccc(-c3[nH]c4cc5ncnc5cc4nc3-c3ccccc3)cc2)CC1", "U2OS", "Yes"),
    ("CC(C)CC(=O)Nc1[nH]nc2c1CN(C(=O)C1CCN(C)CC1)C2(C)C", "U2OS", "Yes"),
    ("COc1ccccc1CN[C@H]1C2CCN(CC2)[C@H]1C(c1ccccc1)c1ccccc1", "U2OS", "No"),
    ("Cc1cccc(CN2CCN(C(c3ccccc3)c3ccc(Cl)cc3)CC2)c1.Cl.Cl (configuration not stated)", "U2OS", "Yes"),
    ("CCOC(=O)Nc1cc(-c2ccc(C)c(NS(C)(=O)=O)c2)nn2c(C)nnc12", "U2OS", "Yes"),
    ("O=C(c1cc2c(cc1F)OC(c1ccc(F)cc1)(c1ccc(Cl)cc1Cl)O2)N1CCOCC1 (configuration not stated)", "U2OS", "No"),
]

---

tested on: Fibroblast; experiment: Multiplex assay against human fibroblast; type: toxicity, cell-based; conditions: 12 h, 1 µM, compound concentration 1 uM, replicate 1

# molecule, target or system, units text, Population Apoptotic (%)
data = [
    ("CC(C)NC(=O)N1CC[C@H](NC2=Nc3cc(F)ccc3N(CC(F)F)c3ccc(Cl)cc32)C1", "Fibroblast", "%", 68),
    ("CC(C)OC(=O)N1CCC(Oc2ncnc3c2cnn3-c2ccc(S(C)(=O)=O)cc2F)CC1", "Fibroblast", "%", 64),
    ("CCc1ccc(OCc2ccccc2C(=O)Nc2ccc3nc(C)cc(N)c3c2)cc1.Cl", "Fibroblast", "%", 67),
    ("CC1=C(C(=O)Nc2cc3cn[nH]c3cc2F)C(c2ccc(C(F)(F)F)cc2)CC(=O)N1 (centres undefined)", "Fibroblast", "%", 78),
    ("Cc1ccc2c(c1)c1c(n2CCc2ccc(C)nc2)CCN(C)C1 [LATREPIRDINE]", "Fibroblast", "%", 60),
    ("C=CC(=O)Nc1cccc(Sc2nc(Nc3ccc(N4CCN(C)CC4)cc3)ncc2Cl)c1", "Fibroblast", "%", 35),
    ("COC(=O)C1=C(C)NC(C)=C(C(=O)OCCCN2CCC(c3ccccc3)(c3ccccc3)CC2)[C@H]1c1cccc([N+](=O)[O-])c1", "Fibroblast", "%", 65),
    ("CC(C)Oc1ccccc1C(=O)Nc1ccccc1C(=O)Nc1cccc(S(=O)(=O)C(F)(F)F)c1", "Fibroblast", "%", 75),
    ("CCOC(=O)Nc1cc(-c2ccc(C)c(NS(C)(=O)=O)c2)nn2c(C)nnc12", "Fibroblast", "%", 75),
]

---

Total Cell Count overview
system: Fibroblast; assay: Multiplex assay against human fibroblast; format: toxicity, cell-based; settings: 48 h, 10 µM, compound concentration 10 uM, replicate 1

# compound, Total Cell Count
measured = [
    ("CCc1nn(CCCN2CCN(c3cccc(Cl)c3)CC2)c(=O)n1CCOc1ccccc1.Cl [NEFAZODONE HYDROCHLORIDE]", 257),
    ("COc1ccccc1CN[C@H]1C2CCN(CC2)[C@H]1C(c1ccccc1)c1ccccc1", 172),
    ("CC(C)OC(=O)N1CCC(Oc2ncnc3c2cnn3-c2ccc(S(C)(=O)=O)cc2F)CC1", 143),
    ("CNC(=O)Nc1ccc(-c2nc(N3CC4CCC(C3)O4)c3cnn(C4CCC5(CC4)OCCO5)c3n2)cc1", 87),
    ("CC(C)NC(=O)N1CC[C@H](NC2=Nc3cc(F)ccc3N(CC(F)F)c3ccc(Cl)cc32)C1", 190),
    ("O=c1cc(N2CCOCC2)oc2c(-c3cccc4c3sc3ccccc34)cccc12", 173),
    ("O=C(c1cc2c(cc1F)OC(c1ccc(F)cc1)(c1ccc(Cl)cc1Cl)O2)N1CCOCC1 (stereo not drawn)", 167),
    ("COC(=O)C1=C(C)NC(C)=C(C(=O)OCCCN2CCC(c3ccccc3)(c3ccccc3)CC2)[C@H]1c1cccc([N+](=O)[O-])c1", 138),
    ("CC1=C(C(=O)Nc2cc3cn[nH]c3cc2F)C(c2ccc(C(F)(F)F)cc2)CC(=O)N1 (stereo not drawn)", 130),
    ("CC(C)Oc1ccccc1C(=O)Nc1ccccc1C(=O)Nc1cccc(S(=O)(=O)C(F)(F)F)c1", 232),
    ("Cc1cccc(CN2CCN(C(c3ccccc3)c3ccc(Cl)cc3)CC2)c1.Cl.Cl (stereo not drawn)", 124),
    ("Cc1c[nH]c2nccc(Oc3c(F)cc(Nc4cc(Cl)nc(N)n4)cc3F)c12", 180),
    ("Cc1ccc2c(c1)c1c(n2CCc2ccc(C)nc2)CCN(C)C1 [LATREPIRDINE]", 208),
    ("COc1cc2ncn(-c3cc(OCc4ccccc4C(F)(F)F)c(C(N)=O)s3)c2cc1OC [GW843682X]", 177),
    ("CC(C)c1noc(N2CCC(COc3ccc(-c4ccc(S(C)(=O)=O)cc4)nc3)CC2)n1", 184),
    ("CN1CCN(Cc2ccc(Nc3ncc(Cl)c(Nc4ccccc4S(=O)(=O)N(C)C)n3)cc2)CC1", 122),
    ("C#Cc1cccc(Nc2ncnc3cc(OCCOC)c(OCCOC)cc23)c1", 113),
    ("COc1cc(Nc2nccc(-c3cnn4nc(OC)ccc34)n2)cc(C(F)(F)F)c1", 291),
]

---

test system: Fibroblast; assay: Incucyte cell viability with human fibroblast; type: toxicity, cell-based; conditions: 18 h, 10 µM, compound concentration 10 uM, replicate number 1, timepoint 18 hours; further: filed as whole numbers so only -1 and 0 and 1 occur
Growth Rate overview

# compound, Growth Rate
records = [
    ("O=C(O)CC/C=C\\C[C@@H]1CO[C@H](c2ccccc2Cl)O[C@@H]1c1ccccc1O", 1),
    ("C=CC(=O)Nc1ccc2[nH]c(=O)n(C3CCN(Cc4ccc(-c5nc6cc[nH]c(=O)c6cc5-c5ccccc5)cc4)CC3)c2c1", 1),
    ("COc1ccc(S(=O)(=O)N2c3ccc(Cl)cc3[C@](O)(c3ccccc3Cl)[C@@H]2C(=O)N2CCC[C@H]2C(N)=O)cc1OC", 0),
    ("C[C@]12CC[C@@H]3c4ccc(O)cc4CC[C@H]3[C@@H]1CC[C@@H]2O", 0),
    ("Cc1ccc2c(c1)c1c(n2CCc2ccc(C)nc2)CCN(C)C1 [LATREPIRDINE]", 0),
    ("COc1cc2ncn(-c3cc(OCc4ccccc4C(F)(F)F)c(C(N)=O)s3)c2cc1OC [GW843682X]", 0),
    ("O=C1CCc2cc(Nc3cc(OC4CCOCC4)c([N+](=O)[O-])cc3Cl)ccc2N1", 0),
    ("CCc1ccc(OCc2ccccc2C(=O)Nc2ccc3nc(C)cc(N)c3c2)cc1.Cl", 0),
    ("CNCc1ccccc1-c1csc([C@@H](C)Nc2nc(C)nc3cc(OC)c(OC)cc23)c1", 0),
    ("CCNC(=O)c1cc2c(N3CCOC[C@@H]3C)ccnc2n1C", 1),
    ("C[C@H](c1ccc(F)cc1)N(Cc1cccc(C(=O)O)c1)C(=O)c1cnc2ccccc2c1", 1),
    ("O=S1(=O)c2cccc3cccc(c23)N1CCCN1CCN(c2ccc(F)cc2)CC1", 1),
    ("CC(C)(O)c1ccccc1CC[C@@H](SCC1(CC(=O)[O-])CC1)c1cccc(/C=C/c2ccc3ccc(Cl)cc3n2)c1.[Na+] [MONTELUKAST SODIUM]", 1),
    ("CN1C[C@H](Nc2cnn(C)c(=O)c2Br)C[C@H](c2ccccc2)C1", 1),
    ("CSc1cccnc1N1CCN(Cc2nc3ccccc3[nH]2)CC1", 0),
    ("Cc1cc(C)c(-n2ccn3nc(-c4cccnc4)cc23)cc1NC(=O)c1cc(C#N)cc(S(F)(F)(F)(F)F)c1", 1),
    ("CCOC(=O)CCNc1cc(N2CCc3ccccc3CC2)nc(-c2cccnc2)n1", 1),
]
